Subject Of Test: MAP1LC3A 2-121, Q9H492
Measured Property: selected by phage display

| Binder | selected by phage display |
| --- | --- |
| QGSRQDSWEVVEGLRG [OSBPL3, Q9H4L5] | confidence 2 (active) |
| APELWTELTGLAASSE [KIFC2, Q96AC6] | confidence 3 (active) |
| GPEAASGEWELLRLDS [ESPL1, Q14674] | confidence 2 (active) |
| ANGWQIISSSSGATPT [SP1, P08047] | confidence 4 (active) |
| AEESFTTLNVDIRNHQ [USP9X, Q93008] | confidence 2 (active) |
| WEDLEARINAENEVPI [CEP170B, Q9Y4F5] | confidence 2 (active) |

Quick batch: selected by phage display for everything below.
1. QVDEVTDLLASFTSLS [ANKRD54, Q6NXT1]
2. LNVSSREEAFTDLSLA [USP35, Q9P2H5]

OUTPUT:
confidence 3 (active)
confidence 3 (active)

INPUT: Which measured selected by phage display value corresponds to MVEAGGLLEKWTLLEE [APOBR, Q0VD83] ?
OUTPUT: confidence 4 (active)
